Experiment notes: Injection formulation administered IV and orally: mouse PK parameters
Type: in vivo
Conditions: mouse, in vivo; Oral 10 mg/kg, injection formulation
Observed property: Cmax (nM)
Report the figure in nM without appending any unit label.

# Cmax (compound: C=C[C@H]1O[C@H]2C[C@H]3OC[C@@]3(OC(C)=O)[C@H]3[C@H](OC(=O)c4ccccc4)[C@]4(C(C)(C)O)CC(OC(=O)[C@H](O)C(CC(C)C)NC(=O)OC(C)(C)C)C(C)=C4[C@H](OC(C)=O)[C@H](O1)[C@]23C (stereo partly shown) ) is 460

* * *

Experiment notes: S-(1) pharmacokinetics in mouse, plasma and brain levels after single IV dose
Assay type: in vivo, CD-1 mice
Conditions: CD-1, mouse; Brain; single IV 20 mg/kg
Observed property: MRT (h)
Form entry: value (h) — number only.

MRT reported for this molecule C=C[C@H]1O[C@H]2C[C@H]3OC[C@@]3(OC(C)=O)[C@H]3[C@H](OC(=O)c4ccccc4)[C@]4(C(C)(C)O)CC(OC(=O)[C@H](O)C(CC(C)C)NC(=O)OC(C)(C)C)C(C)=C4[C@H](OC(C)=O)[C@H](O1)[C@]23C (stereo partly drawn) [S-(1)] : 42.5
